CONDITION SUMMARY: in n-pentanol, 311.15 K
MEASURED METRIC: solubility (mole fraction)
Write the number on its own, no unit after it.

Prompt line: Could you tell me which solubility (mole fraction) is on file for `CCn1c2ccccc2c2ccccc21` ?
Response line: 0.05

----------
CONDITION SUMMARY: in n-propanol, 307.15 K
MEASURED METRIC: solubility (mole fraction)
Reply with the value as a number alone.

Prompt line: Look at this molecule and give its reported solubility (mole fraction). `CCn1c2ccccc2c2ccccc21`
Response line: 0.028

----------
CONDITION SUMMARY: in methanol, 295.15 K
MEASURED METRIC: solubility (mole fraction)
Just the number, please, no unit after it.

Prompt line: Fill in: solubility (mole fraction) of `CCn1c2ccccc2c2ccccc21` is ___
Response line: 0.0057
